Reported yeast fitness values follow for various variants
B1: tRNA (parent)
chain: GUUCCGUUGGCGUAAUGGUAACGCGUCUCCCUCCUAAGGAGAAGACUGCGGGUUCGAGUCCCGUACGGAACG

Variants of: B1
Assay: yeast fitness relative to wild type (ratio to wild type); higher = fitter; tRNA-Arg(CCU), competitive growth, 37 C, YPD
Fewer inactive variants are shown than the library holds.

Study these solved cases before continuing.
INSERT INTO results (query_sequence, measurement) VALUES
  ('GUUCCGUUAGCGUAAUGGUAACGCGUCUCCCUCCUAAGGAGAAGACUGCGGAUUCGAGUCUCGUACGGCACG', '≤ 0.5'),
  ('GUUCCGUUGGCGUGAUGGUAACGUGUCUCCCUCCUAAGGAGAAGACUGCGGAUUCGAGUUCCGUACGGAACG', '≤ 0.5'),
  ('GUUCCGUUGGCGUAAUGGUACCGCGUCUCCCUCCUAAGGAGAAGGCUGCGGGUUCGAGUCCCCUAUGGAACG', '≤ 0.5'),
  ('GUUCCCUUGGCGUAAUGGUAACGCGUCUCCCUCCUAGGGAGAAGACUGCGGGUUCGAGUCCCGUACGGACCG', '≤ 0.5'),
  ('GUUCUGUCGGCGUAAUGGUGACGCGUCUCACUCCUAAGGAGAAGACUGCGGGUUCGAGUCCCGUACGUAACG', '≤ 0.5');

Prompt: Reported yeast fitness, variant GUUCCGUUGGCGUAAUGGUAACCGGUCUCCCUCUUAAGAAGAAGCCUGCGGGUUCGAGUCCCGUACGGAACG : ____
Response: ≤ 0.5

Prompt: // returns reported yeast fitness for input GUUCCGUUGGCGUAAUGCUAACGCGUCUCCCUCCUAAGGGGGAGACUGCGGGUUCGAGUCCCGUAGGGAACG
Response: ≤ 0.5

Prompt: Look up yeast fitness for this variant: GUUCCGUUGGCGUUAUGGUAACGCGUCUCUCUCCUAAGGAGAAGACUGCGGGUUCGAGUCCGGUGCGCAACG
Response: ≤ 0.5

Prompt: What does the record list as yeast fitness for GUUCCGUUGGCGCAAUGGAAACGCGUCUCCCUCCUAAGGAGCAGACUGCCGGUUCGAGUCCCGUACGGAACG ?
Response: 0.619

Prompt: Sample GUUCCGUUGGCGUAAUGGUUACACGUCUCCCUCCUUAGGAGAAGACUGCGGGUUCGAGUCCCGUUCGGAACG — what was its yeast fitness?
Response: ≤ 0.5

Prompt: Fill blank: measured yeast fitness of the variant GUUCCGUUGCCGUAAUGGUAACGCCUCUCCCUCCUAACGGGGAGACUGCGGGUUCGAGUCCCGUACGGAACG is ____.
Response: ≤ 0.5
